Biological target: C-X-C chemokine receptor type 3 (Homo sapiens) (UniProt P49682)
Sequence (P49682 whole entry, looked up): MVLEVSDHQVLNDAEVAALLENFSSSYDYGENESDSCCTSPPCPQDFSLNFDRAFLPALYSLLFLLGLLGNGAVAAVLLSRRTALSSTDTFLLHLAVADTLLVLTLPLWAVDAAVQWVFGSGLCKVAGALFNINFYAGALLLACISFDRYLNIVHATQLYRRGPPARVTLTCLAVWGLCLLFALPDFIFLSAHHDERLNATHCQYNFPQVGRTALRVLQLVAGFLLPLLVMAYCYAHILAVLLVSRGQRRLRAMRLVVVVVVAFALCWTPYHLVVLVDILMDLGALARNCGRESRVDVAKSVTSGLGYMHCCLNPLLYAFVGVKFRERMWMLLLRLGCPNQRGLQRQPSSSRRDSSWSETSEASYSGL
Test: Inhibition of CXCR3 at 20 to 50 uM relative to control
ENDPOINT_LABEL: inhibition at 50 µM

1) Cc1ccc(C(=O)N2CCN(CC(=O)Nc3cc(-c4ccccc4)sc3C(N)=O)CC2)cc1; 50%

* * *

Biological target: C-C chemokine receptor type 7 (Homo sapiens)
pIC50: −log10 of the molar value.
ENDPOINT_LABEL: pIC50

1. Cc1ccc(C(Nc2c(Nc3cccc(C(=O)N(C)C)c3O)c(=O)c2=O)C2(C)CCCO2)o1 (stereo unspecified); 8.10

* * *

Experiment: Oral bioavailability in mouse at 30 mg/kg
Assay type: ADME, organism-based
Conditions: in vivo
ENDPOINT_LABEL: bioavailability (%)

1) CC(=O)N1C2C=C(CN3[C@@H]4CC[C@H]3C[C@H](Nc3ccc5ccc(OC(C)C)cc5n3)C4)CC1CCC2; 69

These data points were gathered from ChEMBL document CHEMBL5257017.
